method: Metabolic stability, pooled human liver microsome incubations
condition context: human, microsomes, pH 7.4, Intrinsic clearance, CLint, pHLM, alternative microsomal scaling factor 45 mg microsomal protein per gram liver
# note: boundary value 200 mL/min/kg maps to Not met; CLint scaled at 0.5 µM below it maps to Met

[
  {
    "molecule": "C=CCCCn1nc(C(=O)N[C@H](C(=O)OC)C(C)(C)C)c2ccccc21 [(S)-MDMB-4en-PINACA (5)]",
    "discrete label": "Not met"
  }
]

[in] Please check: CLint scaled at 0.5 µM for COC(=O)[C@@H](NC(=O)c1nn(CCCCCF)c2ccccc12)C(C)(C)C [(S)-5F-MDMB-PINACA (2)] , strictly under 200 mL/min/kg or not?
[out] Not met

[in] Same for CC(C)[C@H](NC(=O)c1nn(CC2CCCCC2)c2ccccc12)C(N)=O [(S)-AB-[…] (11)]
[out] Met

[in] Then C=CCCCn1cc(C(=O)N[C@@H](C(=O)OC)C(C)C)c2ccccc21 [(R)-AMB-4en-PICA (7)] ?
[out] Not met

---

Tested on: pooled human cryopreserved hepatocytes (pHHeps)
method: Metabolic stability, pooled human cryopreserved hepatocyte incubations
condition context: pHHeps, 99x10^6 hepatocytes per gram liver
I'd be grateful if you could share measured Predicted in vivo hepatic clearance, CLH for these entries.
Answers are plain numbers, in mL/min/kg.

Consider the worked cases shown below.
[
  {
    "compound": "C=CCCCn1nc(C(=O)N[C@@H](C(=O)OC)C(C)(C)C)c2ccccc21 [(R)-MDMB-4en-PINACA (5)]",
    "Predicted in vivo hepatic clearance, CLH (mL/min/kg)": 4.86
  },
  {
    "compound": "COC(=O)[C@@H](NC(=O)c1cn(CCCCCF)c2ccccc12)C(C)(C)C [(S)-5F-MDMB-PICA (3)]",
    "Predicted in vivo hepatic clearance, CLH (mL/min/kg)": 7.49
  },
  {
    "compound": "C=CCCCn1cc(C(=O)N[C@@H](C(=O)OC)C(C)(C)C)c2ccccc21 [(R)-MDMB-4en-PICA (12)]",
    "Predicted in vivo hepatic clearance, CLH (mL/min/kg)": 6.08
  }
]

Below is a list of compounds. For each, state its recorded Predicted in vivo hepatic clearance, CLH.
1. COC(=O)[C@@H](NC(=O)c1cn(CC2CCCCC2)c2ccccc12)C(C)C [(S)-AMB-CHMICA (9)]
2. COC(=O)[C@H](NC(=O)c1nn(CCCCCF)c2ccccc12)C(C)(C)C [(R)-5F-MDMB-PINACA (2)]
3. COC(=O)[C@H](NC(=O)c1cn(CCCCCF)c2ccccc12)C(C)(C)C [(R)-5F-MDMB-PICA (3)]
4. C=CCCCn1cc(C(=O)N[C@H](C(=O)OC)C(C)C)c2ccccc21 [(S)-AMB-4en-PICA (7)]
5. C=CCCCn1cc(C(=O)N[C@@H](C(=O)OC)C(C)C)c2ccccc21 [(R)-AMB-4en-PICA (7)]
6. COC(=O)[C@@H](NC(=O)c1nn(CCCCCF)c2ccccc12)C(C)(C)C [(S)-5F-MDMB-PINACA (2)]

[out]
1. 7.31
2. 7.78
3. 5.94
4. 15.25
5. 16.53
6. 7.67
